Tested on: IL-6
Assay: Whole bovine blood assay, LPS-induced IL-6
Type: cell-based
Details: Bos taurus, fresh whole bovine blood, LPS stimulant; top drug concentration 250 μM
Reported Endpoint: pIC50
Numbers only, as −log10 of the molar value.

Provide pIC50 for all items below, preserving their order.
1. CC[C@H]1OC(=O)[C@H](C)[C@@H](O[C@H]2C[C@@](C)(OC)[C@](O)(CSc3ccccc3)[C@H](C)O2)[C@H](C)[C@@H](O[C@@H]2O[C@H](C)C[C@H](N(C)S(=O)(=O)c3ccc(Cl)cc3)[C@H]2O)[C@](C)(O)C[C@@H](C)CN[C@H](C)[C@@H](O)[C@]1(C)O
2. CCCNC[C@]1(O)[C@H](C)O[C@@H](O[C@H]2[C@H](C)[C@@H](O[C@@H]3O[C@H](C)C[C@H](N(C)S(=O)(=O)c4ccc([N+](=O)[O-])cc4)[C@H]3O)[C@](C)(O)C[C@@H](C)CN[C@H](C)[C@@H](O)[C@](C)(O)[C@@H](CC)OC(=O)[C@@H]2C)C[C@@]1(C)OC
3. CC[C@H]1OC(=O)[C@H](C)[C@@H](O[C@H]2C[C@@](C)(OC)[C@](O)(CCl)[C@H](C)O2)[C@H](C)[C@@H](O[C@@H]2O[C@H](C)C[C@H](N(C)S(=O)(=O)c3ccc(Cl)cc3)[C@H]2O)[C@](C)(O)C[C@@H](C)CN[C@H](C)[C@@H](O)[C@]1(C)O
4. CC[C@H]1OC(=O)[C@H](C)[C@@H](O[C@H]2C[C@@](C)(OC)[C@](O)(CNCCCN3CCCCC3)[C@H](C)O2)[C@H](C)[C@@H](O[C@@H]2O[C@H](C)C[C@H](N(C)S(=O)(=O)c3ccc(Cl)cc3)[C@H]2O)[C@](C)(O)C[C@@H](C)CN[C@H](C)[C@@H](O)[C@]1(C)O
5. CC[C@H]1OC(=O)[C@H](C)[C@@H](O)[C@H](C)[C@@H](O[C@@H]2O[C@H](C)C[C@H](N(C)S(=O)(=O)c3ccccc3)[C@H]2Oc2ccc(OC)cc2)[C@](C)(O)C[C@@H](C)CN[C@H](C)[C@@H](O)[C@]1(C)O
6. CC[C@H]1OC(=O)[C@H](C)[C@@H](O[C@H]2C[C@@](C)(OC)[C@](O)(CN3CCCCC3)[C@H](C)O2)[C@H](C)[C@@H](O[C@@H]2O[C@H](C)C[C@H](N(C)S(=O)(=O)Nc3ccc(C(F)(F)F)cc3)[C@H]2O)[C@](C)(O)C[C@@H](C)CN[C@H](C)[C@@H](O)[C@]1(C)O
7. CC[C@H]1OC(=O)[C@H](C)[C@@H](O[C@H]2C[C@@](C)(OC)[C@](O)(CNC3CC3)[C@H](C)O2)[C@H](C)[C@@H](O[C@@H]2O[C@H](C)C[C@H](N(C)S(=O)(=O)c3ccc(Cl)cc3)[C@H]2O)[C@](C)(O)C[C@@H](C)CN[C@H](C)[C@@H](O)[C@]1(C)O

[A]
[4.51, 4.34, 4.59, 4.12, 4.68, 4.89, 4.89]

* * *

System: IL-1β
Experiment: Whole bovine blood assay, LPS-induced IL-1β (inhibition / overstimulation)
Format: cell-based
Conditions: drug concentration giving overstimulation (OS) of LPS-induced IL-1β, top concentration 250 μM
Description: Whole Blood Assay-Fresh whole bovine blood samples were collected into heparinized vacutainer tubes. […] Cytokine Detection—An MSD U-Plex cytokine assay was developed following the MSD U-Plex protocol guide and included biotinylated capture antibodies against: bovine Interleukin (IL)-1β (Biorad), bovine IL-6 (R&D Systems) and bovine tumor necrosis factor (TNF)-α (R&D Systems). […] Cytokines were quantified according to manufacturer's instructions using a chemiluminescent readout. […]
Reported Endpoint: minimal effective concentration (µM)
Numbers only, in µM.

Some compounds with known minimal effective concentration results, for comparison:
>  <Compound Structure>
CC[C@H]1OC(=O)[C@H](C)[C@@H](O[C@H]2C[C@@](C)(OC)[C@](O)(CNC)[C@H](C)O2)[C@H](C)[C@@H](O[C@@H]2O[C@H](C)C[C@H](N(C)S(=O)(=O)c3ccc(Cl)cc3)[C@H]2O)[C@](C)(O)C[C@@H](C)CN[C@H](C)[C@@H](O)[C@]1(C)O

>  <Target System>
IL-1β

>  <Test Value>
5

$$$$
>  <Compound Structure>
CCCNC[C@]1(O)[C@H](C)O[C@@H](O[C@H]2[C@H](C)[C@@H](O[C@@H]3O[C@H](C)C[C@H](N(C)S(=O)(=O)c4nccn4C)[C@H]3Oc3c(C)cccc3F)[C@](C)(O)C[C@@H](C)CN[C@H](C)[C@@H](O)[C@](C)(O)[C@@H](CC)OC(=O)[C@@H]2C)C[C@@]1(C)OC

>  <Target System>
IL-1β

>  <Test Value>
18

$$$$

Provide minimal effective concentration for all items below, preserving their order.
1. CC[C@H]1OC(=O)[C@H](C)[C@@H](O)[C@H](C)[C@@H](O[C@@H]2O[C@H](C)C[C@H](N(C)S(=O)(=O)c3ccc(F)cc3)[C@H]2Oc2ccc(F)cc2)[C@](C)(O)C[C@@H](C)CN[C@H](C)[C@@H](O)[C@]1(C)O
2. CCCNC[C@]1(O)[C@H](C)O[C@@H](O[C@H]2[C@H](C)[C@@H](O[C@@H]3O[C@H](C)C[C@H](N(C)S(=O)(=O)c4ccccc4)[C@H]3O)[C@](C)(O)C[C@@H](C)CN[C@H](C)[C@@H](O)[C@](C)(O)[C@@H](CC)OC(=O)[C@@H]2C)C[C@@]1(C)OC

[A]
16
40
